# assayTarget: Retinoic acid receptor RXR-alpha (Mus musculus, UniProt P28700)
# Sequence (P28700 whole entry, the tested form may be a part): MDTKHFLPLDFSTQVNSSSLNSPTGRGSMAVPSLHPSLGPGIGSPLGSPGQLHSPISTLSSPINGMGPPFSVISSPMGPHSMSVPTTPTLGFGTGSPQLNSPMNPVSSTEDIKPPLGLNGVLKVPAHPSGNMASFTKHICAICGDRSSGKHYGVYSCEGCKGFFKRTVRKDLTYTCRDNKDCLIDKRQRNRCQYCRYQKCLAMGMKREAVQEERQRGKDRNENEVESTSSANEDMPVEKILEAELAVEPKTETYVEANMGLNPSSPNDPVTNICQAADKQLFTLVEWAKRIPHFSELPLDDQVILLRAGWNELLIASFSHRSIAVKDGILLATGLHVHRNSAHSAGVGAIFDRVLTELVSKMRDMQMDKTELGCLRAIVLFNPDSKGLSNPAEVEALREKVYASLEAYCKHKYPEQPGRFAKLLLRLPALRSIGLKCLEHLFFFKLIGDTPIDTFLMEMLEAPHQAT
# protocolSummary: Transactivation of Gal4-LBD fused mouse RXRalpha (218 to 467) transfected in african green monkey CV1 cells assessed as luciferase activity at after 6 hrs by Dual-light chemiluminescent assay
Consider the following molecules; for each one, report its EC50.
The figure you give is taken to be in nM; do not add the unit.

EC50 value, target or system Retinoic acid receptor RXR-alpha (Mus musculus, UniProt P28700), for "COCCOCOc1cc(C)c(-c2ccc(/C=C/C(=O)O)cc2Cl)cc1C12CC3CC(CC(C3)C1)C2" : 600

The molecule "COCCOCOc1cc(C)c(-c2ccc3cc(C(=O)O)ccc3c2Cl)cc1C12CC3CC(CC(C3)C1)C2" , tested on Retinoic acid receptor RXR-alpha (Mus musculus, UniProt P28700), showed EC50 of 667

EC50 value, target or system Retinoic acid receptor RXR-alpha (Mus musculus, UniProt P28700), for "COCCOCOc1cc(C)c(-c2ccc(CC(=O)O)cc2Cl)cc1C12CC3CC(CC(C3)C1)C2" : 1140

Value sought: EC50, system Retinoic acid receptor RXR-alpha (Mus musculus, UniProt P28700), item "Cc1cc(O)c(C23CC4CC(CC(C4)C2)C3)cc1-c1ccc(/C=C/C(=O)O)cc1Cl" . Result: 576

###

Please provide measured inhibition at 4 µM for the entries that follow.
# System: T47D
# protocolSummary: Antiproliferative activity against human T47D cells at 4 uM after 48 hrs by MTT assay
# Format: functional
Give your result in % as a bare value.

inhibition at 4 µM measured on "COCCOCOc1cc(C)c(-c2ccc(/C=C/C(=O)O)cc2Cl)cc1C12CC3CC(CC(C3)C1)C2" = 29.1

The measured inhibition at 4 µM associated with "COCCOCOc1cc(C)c(-c2ccc(CC(=O)O)cc2Cl)cc1C12CC3CC(CC(C3)C1)C2" reads 27.6

compound "COCCOCOc1ccc(C(=O)/C=C/c2ccc(C(=O)O)cc2)cc1C12CC3CC(CC(C3)C1)C2" , inhibition at 4 µM observed: 50.6

###

Answer each item with its documented inhibition at 4 µM.
# Test system: MIA PaCa-2
# protocolSummary: Antiproliferative activity against human MIAPaCa2 cells at 4 uM after 48 hrs by MTT assay
# Format: functional
# conditionNotes: MIA PaCa-2, 48 h
Give your result in % as a bare value.

Record summary for "COCCOCOc1cc(C)c(-c2ccc(CC(=O)O)cc2Cl)cc1C12CC3CC(CC(C3)C1)C2" : reported inhibition at 4 µM = 6.3

Reported inhibition at 4 µM for "COCCOCOc1ccc(C(=O)/C=C/c2ccc(C(=O)O)cc2)cc1C12CC3CC(CC(C3)C1)C2" was 74.9

Looking up "Cc1cc(O)c(C23CC4CC(CC(C4)C2)C3)cc1-c1ccc2cc(C(=O)O)ccc2c1Cl" , I found its inhibition at 4 µM recorded as 91.5

# compound "COCCOCOc1cc(C)c(-c2ccc(/C=C/C(=O)O)cc2Cl)cc1C12CC3CC(CC(C3)C1)C2" ; its inhibition at 4 µM = 63.3

// "Cc1cc(O)c(C23CC4CC(CC(C4)C2)C3)cc1-c1ccc(/C=C/C(=O)O)cc1Cl" : inhibition at 4 µM value = 26.3

Item: "Cc1cc(O)c(C23CC4CC(CC(C4)C2)C3)cc1-c1ccc(CC(=O)O)cc1Cl" | inhibition at 4 µM: 26.8

The recorded inhibition at 4 µM for entry "C/C(=C/c1ccc(C(=O)O)cc1)c1ccc(O)c(C23CC4CC(CC(C4)C2)C3)c1" equals 76.1

Documented inhibition at 4 µM of "COCCOCOc1cc(C)c(-c2ccc3cc(C(=O)O)ccc3c2Cl)cc1C12CC3CC(CC(C3)C1)C2" : 63.7
